# System: HT-29 cells
# Measurement Description: CellTiter-Glo luminescent cell viability assay with HT-29 cells (72h incubation)
# Format: cell-based, human
# Conditions Used: Homo sapiens, HT-29, HT29 cells, read-out: CTG HT29
Below, each entry is listed with its recorded IC50.
Quantity Measured: IC50

>>> result("CC(=O)N[C@H]1CC(=O)N2CCOC(CCOc3ccc(C)c(c3)CNC(=O)[C@H](CCc3ccccc3)NC1=O)C2 (stereo partly shown) [Compound 258]")
"100 to 500 nM"
>>> result("CC(=O)N[C@H]1CC(=O)N2CCCC(CCOc3ccc(C)c(c3)CNC(=O)C(c3cn(C)cn3)NC1=O)C2 (stereo partly shown) [Compound 557]")
"100 to 500 nM"
>>> result("Cc1ccc2cc1CNC(=O)[C@H](CCc1ccccc1)NC(=O)[C@@H](NC(=O)c1cc3cc(C(F)(F)F)ccc3n1C)CC(=O)N1CCCC(CCO2)C1 (stereo partly shown) [Compound 87]")
"< 100 nM"
>>> result("CC(=O)N[C@H]1CC(=O)N2CCCC(CCOc3ccc(C)c(c3)CNC(=O)C(c3cc(C)sn3)NC1=O)C2 (stereo partly shown) [Compound 556]")
"< 100 nM"
>>> result("Cc1ccc2cc1CNC(=O)[C@H](CCc1ccccc1)NC(=O)[C@@H](NC(=O)Cc1cnc(N)s1)CC(=O)N1CCCC(CCO2)C1 (stereo partly shown) [Compound 311]")
"< 100 nM"
>>> result("Cc1ccc2cc1CNC(=O)[C@H](CCc1ccccc1)NC(=O)[C@@H](NC(=O)OCc1ccccc1)CC(=O)N1CC(CCO2)Cc2ccccc21 (stereo partly shown) [Compound 313]")
"100 to 500 nM"
>>> result("COCCOCCOCCOC(=O)N[C@H]1CC(=O)N2CCCC(CCOc3ccc(C)c(c3)CNC(=O)[C@H](CCc3ccccc3)NC1=O)C2 (stereo partly shown) [Compound 220]")
"< 100 nM"
>>> result("Cc1ccc2cc1CNC(=O)[C@H](CCc1ccccc1)NC(=O)[C@@H](NC(=O)CN1CCOCC1)CC(=O)N1CCCC(CCO2)C1 (stereo partly shown) [Compound 88]")
"< 100 nM"
>>> result("Cc1ccc2cc1CNC(=O)[C@H](CCc1ccccc1)NC(=O)CCC(=O)N1CCCC(CCO2)C1 (stereo partly shown) [Compound 13]")
"500 to 1000 nM"
>>> result("CC(=O)N[C@H]1CC(=O)N2CCCC(C2)Oc2ccc(C)c(c2)CNC(=O)[C@H](CCc2ccccc2)NC1=O (stereo partly shown) [Compound 255]")
"100 to 500 nM"
>>> result("Cc1ccc2cc1CNC(=O)[C@H](CCc1ccccc1)NC(=O)[C@@H](NC(=O)C1CCC(C(F)(F)F)N1)CC(=O)N1CCCC(CCO2)C1 (stereo partly shown) [Compound 157]")
"< 100 nM"
>>> result("CC(=O)N[C@H]1CC(=O)N2CCCC(CCOc3ccc(F)c(c3)CNC(=O)[C@H](CCc3ccccc3)NC1=O)C2 (stereo partly shown) [Compound 205]")
"< 100 nM"
>>> result("CC(=O)N[C@H]1CC(=O)N(C)CCCCOc2ccc(C)c(c2)CNC(=O)[C@H](CCc2ccccc2)NC1=O [Compound 296]")
"100 to 500 nM"
